src = paper PMC9022995

Biological target: T1, KLHL3 Kelch domain (a.a. 298–587) (human, UniProt Q9UH77-1 298-587)
T1 chain: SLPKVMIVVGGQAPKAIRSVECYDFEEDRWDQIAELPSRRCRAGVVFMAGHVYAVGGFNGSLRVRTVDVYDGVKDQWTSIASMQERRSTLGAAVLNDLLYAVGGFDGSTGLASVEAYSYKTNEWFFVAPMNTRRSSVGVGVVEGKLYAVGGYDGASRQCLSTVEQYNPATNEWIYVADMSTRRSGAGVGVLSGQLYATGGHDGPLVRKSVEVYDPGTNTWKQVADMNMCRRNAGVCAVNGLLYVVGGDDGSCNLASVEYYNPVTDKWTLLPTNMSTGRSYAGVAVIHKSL
Assay: FP; 75 mM Cl-
Ends that are not written are not given here. Rhodamine‑110 = fluorophore on the N-terminus
PROPERTY: pKd
The scale used: pKd is minus the common logarithm of the concentration in molar units.

BINDER: {Rhodamine‑110}-EPEEPEADQHQ (WNK4 acidic degron motif, residues 557–567; also called 11-residue degron from WNK4; source: synthetic peptide (Fmoc solid phase, purified by HPLC)) [Rhodamine-110 labelled WNK4 degron peptide (EPEEPEADQHQ)]
pKd: 6.22

Turning now to a further record.
Note pKd for the binder shown: {Rhodamine‑110}-ECEETEVDQHV [Rhodamine-110 labelled WNK3 degron peptide (ECEETEVDQHV)] 5.89
